Data provenance: ChEMBL document CHEMBL1201862

# System: MOLT-4
# assay info: NCI tumour cell line growth inhibition, 48 h
Active and inactive are the calls of the source. Cut-off read from the data, not from the text of the source: active = GI50 up to about 1.1 µM and inactive = higher.
recorded metric: GI50

Suppose we examine the molecule O=C1[C@H](O)[C@@H]2C(O)O[C@H]3[C@@H]2N1C[C@H]3[Si](c1ccccc1)(c1ccccc1)c1ccccc1 (stereo partly drawn) ; what GI50 value has been reported?
> 100 µM (inactive)

Requested field: GI50. Item: `COc1cc2c([C@@H](OC(=O)c3ccccc3)c3ccc4c(c3)OCO4)nccc2c(OC)c1OC`
13.5 µM (inactive)

Looking for the measured GI50 of COc1ccc(NC(=O)CC(=O)N2N=C(N(CCC#N)c3ccccc3Cl)CC2c2ccccc2)cc1 (stereo not drawn) , can you help?
> 100 µM (inactive)

// returns reported GI50 for input O=C(NC1C=CCC2C(=O)N(c3ccccc3)C(=O)C12)OCc1ccccc1 (stereo not drawn)
> 100 µM (inactive)

Recorded GI50 for `C=CCOc1cc(NC(=S)c2ccoc2C)ccc1OC` , please?
> 100 µM (inactive)

Value lookup for GI50; key = `Cn1cnc([N+](=O)[O-])c1Sc1nc2cc(Cl)c(F)cc2[nH]1`
2.08 µM (inactive)

Please report the recorded GI50 for CCOC(=O)C(NCc1ccc2c(c1)OCO2)(NC(=O)c1ccccc1)C(F)(F)F (stereo not drawn) .
18 µM (inactive)

For the molecule shown here, CC(=O)OC1CC2(C)OC(Cc3ccccc32)O1 (stereo not drawn) , give the reported GI50.
> 100 µM (inactive)

What does the record list as GI50 for Cc1ccccc1C1OC(=O)c2ccccc21 (stereo not drawn) ?
> 100 µM (inactive)

Query (molecule): COc1ccc2c(c1OC)C(Br)CCC(Br)(Br)C2=O (stereo not drawn) ; field requested: GI50
1.75 µM (inactive)

Could you tell me which GI50 is on file for C=CCC(O)c1cc(OC)ccc1OC (stereo not drawn) ?
> 10 µM (inactive)

Which value of GI50 has been reported for `O=C1c2ccccc2-c2c1c1ccccc1c(=O)n2-c1cccnc1` in the records?
3.78 µM (inactive)

I'd like to know its GI50. The molecule in question is `CC(C)=CCC/C(C)=C/CC/C(C)=C/[C@@H]1[C@@H](CO)[C@]1(C)CC/C=C(\C)CCC=C(C)C`
28.9 µM (inactive)

###

# Test system: DU-145
# assay info: NCI tumour cell line growth inhibition, 48 h
The source made the active and inactive calls. No stated cut-off is given here; in the data, active = GI50 up to about 1.1 µM and inactive = higher.
Kindly supply the reported GI50 values for the records listed here.

May I ask what GI50 has been recorded for CC1=C(CO)C(=O)O[C@@H]([C@@H](C)[C@H]2CC[C@H]3[C@@H]4C[C@@H](O)[C@@]5(O)CC=CC(=O)[C@]5(C)[C@H]4CC[C@]23C)C1 [JABOROSALACTONE D] ?
35.2 µM (inactive)

If you can, please state the reported GI50 value of COc1ccc(COCC[C@H](C)OC2OC(CO[Si](C)(C)C(C)(C)C)C(OC(=O)CCCN=[N+]=[N-])C(OC(=O)CCCN=[N+]=[N-])C2OC(=O)CCCN=[N+]=[N-])cc1 (stereo partly drawn) .
> 100 µM (inactive)

Reported GI50, molecule `C[C@@]12[C@H]3CC[C@@H]1[C@H](O)C(=O)N2CC3` : ____
> 100 µM (inactive)

###

# System: SF-539
# assay info: NCI tumour cell line growth inhibition, 48 h
Calls of active or inactive are those of the source. No stated cut-off is given here; in the data, active = GI50 up to about 1.1 µM and inactive = higher.
Respond with a class label; see y (active), n (inactive)

Could you kindly confirm the outcome this assay logged for `C[C@@]12[C@H]3CC[C@@H]1[C@H](O)C(=O)N2CC3` ?
n

What did the test return for `O=C(Nc1c(C(=O)NC2CCCCC2)[nH]c(=O)[nH]c1=O)c1ccc(Cl)cc1` ?
n

// outcome(item) with item = `O=C1C(Cl)=C(N2CCN(CCOCCO)CC2)C(=O)c2c(O)ccc(O)c21`
n

Per the records of this test, what outcome belongs to COc1ccc(N2C(=O)C3CC(c4ccc(C)cc4)c4c([nH]c5ccccc45)C3C2=O)cc1 (stereo not drawn) ?
n

Could you kindly confirm the outcome this assay logged for COc1cc2c(cc1O)C1Cc3ccc(OC)c(O)c3C[N+]1(C)CC2 (stereo not drawn) ?
n

Hi, sorry to bother you, what did the test record for `O=C(N/N=C/c1ccccc1)c1c(F)c(F)c(F)c(F)c1F` ?
n

Please state the recorded outcome for this compound: Cc1ccc(S(=O)(=O)C(CC(NC=O)S(=O)(=O)c2ccc(C)cc2)NC=O)cc1 (stereo not drawn)
n

Per the records of this test, what outcome belongs to CO[C@H]1[C@@H](O)[C@@H](C)O[C@@H](O[C@H]2CC[C@@]3(C)[C@H](CC[C@@H]4[C@@H]3CC[C@]3(C)[C@@H](C5=CC(=O)OC5)CC[C@]43O)C2)[C@@H]1O [ODOROSIDE H] ?
y

###

# Tested on: OVCAR-3
# assay info: NCI tumour cell line growth inhibition, 48 h
Activity calls are given as the source filed them. Cut-off read from the data, not from the text of the source: active = GI50 up to about 1.1 µM and inactive = higher.
The categories you may choose from are active, inactive

Assay outcome for `CCOC(=O)C1=C(C(=O)OCC)SC2(S1)C(C(=O)OCC)=C(C(=O)OCC)Sc1c2ssc1=O` : what was it?
inactive

Please share the test call associated with `C[C@H](O)C(=O)SC[C@H](NC(=O)CC[C@@H](N)C(=O)O)C(=O)NCC(=O)O` .
inactive

Query: recorded result category for `CCOCCOCCOCc1nc(C#N)c(N)o1` in this test
inactive

Just curious, what result did `Cc1ccc(/N=N/C(=N\NC(=O)c2ccc(C)cc2)c2ccc(N(CCC#N)CCC#N)cc2C)cc1` get here?
inactive

State the result this test recorded for `O=C(N/C(=C\c1cc(Cl)ccc1Cl)c1nc2cc(Cl)ccc2[nH]1)c1ccccc1` .
inactive

Hello, I am checking results. What call was entered for CON(C)C(=O)C1CCCO1 (centres undefined) ?
inactive

Fill in: this test's call for N#CC1CCCCCCCCCCC(=O)N(CCCl)C1=O (centres undefined) is ___
inactive

// return assay outcome for N#C[BH2-][n+]1cn(C2CC(O)C(COP(=O)(O)OC3CC(n4c[n+]([BH2-]C#N)c5c(=O)[nH]c(N)nc54)OC3CO)O2)c2nc(N)[nH]c(=O)c21 (centres undefined)
inactive

Write down the call the test reported for this molecule. Item: `CCOC(=O)c1[nH]c(Br)c(-c2ccc(OC)c(OC)c2)c1Br`
active

###

# System: SW-620
# assay info: NCI tumour cell line growth inhibition, 48 h
The source made the active and inactive calls. Cut-off read from the data, not from the text of the source: active = GI50 up to about 1.1 µM and inactive = higher.
Provide the reported GI50 of each item.

Report GI50 for `COC(=O)c1cc2cc(OC)c(OC)cc2cc(C(=O)OC)c1=O` please.
35.3 µM (inactive)

Given COC1C(OC(=O)c2ccc(C)[nH]2)C(O)C(Oc2ccc3c(O)c(NC(=O)c4c[nH]c(C(=O)Nc5c(O)c6ccc(OC7OC(C)(C)C(OC)C(OC(=O)c8ccc(C)[nH]8)C7O)c(C)c6oc5=O)c4C)c(=O)oc3c2C)OC1(C)C (centres undefined) , state its recorded GI50.
4.34 µM (inactive)

Endpoint output: GI50 of `N#CC1(C#N)C(C#N)(C#N)C1(C#N)C(N)=O` . Value?
> 100 µM (inactive)

Entry `C[C@H](O)C(=O)SC[C@H](NC(=O)CC[C@@H](N)C(=O)O)C(=O)NCC(=O)O` : reported GI50 = ?
> 100 µM (inactive)

###

# Tested on: UACC-62
# assay info: NCI tumour cell line growth inhibition, 48 h
Active and inactive are the calls of the source. No stated cut-off is given here; in the data, active = GI50 up to about 1.1 µM and inactive = higher. *1 amine or outer side, *2 acyl side, *3 side chain or, on linkers, in order; H or OH if unused. Where a SMILES comes first, the peptide text is derived from it. Bridges are numbered along the chain shown (N, C = ends). Roman numbers before positions name the chains, in order. [ ]: non-standard residue; d: D form. Actinocin(9to1) = Cc1c2oc3c(C)ccc(C(=O)[*:1])c3nc-2c(C(=O)[*:2])c(N)c1=O; NMeV = CN[CH](C(=O)O)C(C)C; Sar = CNCC(=O)O
A correct response names exactly one class from active, inactive

Per the records of this test, what outcome belongs to `NC(=O)C(=CNC(=S)Nc1ccc(Cl)c(Cl)c1)C(N)=O` ?
inactive

Each compound tested received a call. Report the one for `Cn1ccnc1Sc1ccc(/C=N/NC(=O)c2ccccc2[N+](=O)[O-])cc1[N+](=O)[O-]` .
inactive

// outcome(item) with item = `CN(C)CCCNc1c(C#N)[n+]([O-])c2cc(Cl)ccc2[n+]1[O-]`
inactive

Please share the test call associated with NCC(NC(=O)OCc1ccccc1)C(=O)O (stereo not drawn) .
inactive

Hi team, can someone confirm the assay call for `Clc1ccc(Cc2nc3ccccc3o2)cc1` ?
inactive

Hi team, can someone confirm the assay call for `COc1ccc(Cc2c(N)[nH]c(=O)[nH]c2=O)cc1` ?
inactive

Per the assay record, what outcome was assigned to O=C(NC1C=CCC2C(=O)N(c3ccccc3)C(=O)C12)OCc1ccccc1 (stereo not drawn) ?
inactive

Give the logged outcome of this assay for the following compound: `COc1cccc(OC)c1NC(=O)C(=O)Nn1c(NNC(=O)c2ccncc2)nc2ccccc2c1=O`
inactive

Write down the call the test reported for this compound. Item: `CC(=O)NC1=C(N)C(=O)c2ccccc2C1=O`
inactive

How was `O=C1c2cccc3cc4ccccc4c(c23)C(=O)N1CCCNCCNCCCN1C(=O)c2cccc3cc4ccccc4c(c23)C1=O` classified in this test?
active

Call for entry `O=c1c2nc[nH]c2n(-c2ccccc2)c(=S)n1-c1ccccc1` :
inactive

Each compound tested received a call. Report the one for `O=C1c2ccccc2C(=O)N1n1c(Cc2ccc(Cl)cc2)n[nH]c1=O` .
inactive

# outcome recorded in this test, key = `O=C(N/N=C/c1ccccc1)c1c(F)c(F)c(F)c(F)c1F`
inactive

Query: recorded result category for Cc1c2oc3c(C)ccc(C(=O)NC4C(=O)NC(C(C)C)C(=O)N5CCCC5C(=O)N(C)CC(=O)N(C)C(C(C)C)C(=O)OC4C)c3nc-2c(C(=O)NC2C(=O)NC(C(C)C)C(=O)N3CCCC3C(=O)N(C)CC(=O)N(C)C(C(C)C)C(=O)OC2C)c(N)c1=O (stereo not drawn) (I: TVP[Sar][NMeV] / II: TVP[Sar][NMeV]; ester I:1-I:C, II:1-II:C; linker I:N-II:N via Actinocin(9to1); configuration not given here) in this test
active

In this assay, the call recorded for `Cc1ccc(S(=O)(=O)N2c3ccccc3[C@H]3CCc4c([nH]c5ccccc45)[C@H]32)cc1` was what?
inactive

In this assay, the call recorded for CC12C=CC(=O)C=C1CCC1C3CCC(O)(C(=O)CO)C3(C)CC(O)C12F (stereo not drawn) was what?
inactive

Can you look up the reported call for CC(=O)CCN1CC2CN=NC2(C#N)C1 (stereo not drawn) for me?
inactive

Fill in: this test's call for `C/C(CC(=O)Nc1ccc(C)cc1C)=N/N=C(N)N` is ___
inactive
